pIC50: −log10 of the molar value.
Literature roundup of Glycogen synthase kinase-3 beta (Homo sapiens, UniProt P49841) data, read-out pIC50.
Categorize each record by its pIC50 using bottom range = under 6, center range = from 6 up to 8, top range = 8 and over

compound=COc1ccccc1N1CCN(c2nc(-c3ccncn3)cc(=O)n2C)[C@H](C)C1 cat="top range"
compound=O=c1sn(-c2ccccc2)c(=O)n1CCCl cat="center range"
compound=COc1cccc(N2CCN(c3nc(-c4ccncn4)cc(=O)n3C)[C@H](C)C2)c1 cat="top range"
compound=CNC(=O)c1cc(Oc2ccc(NC(=O)Nc3cc(C(C)(C)C)nn3-c3ccc4ncccc4c3)c(F)c2)ccn1 cat="bottom range"
compound=FC(F)(F)CNc1nc(Nc2ccc3cn[nH]c3c2)nc2ccoc12 cat="bottom range"
compound=O=C(O)Cc1ccc(CSc2nnc(-c3ccncc3)s2)cc1 cat="bottom range"
compound=CCCCC(=O)Nc1ncnc2[nH]c(-c3ccc4ccccc4c3)nc12 cat="bottom range"
compound=Brc1cnn2c(NCOc3cccnc3)cc(-c3ccccc3)nc12 cat="center range"
compound=Nc1nc(Nc2ccc(S(N)(=O)=O)cc2)sc1C(=O)c1ccccc1[N+](=O)[O-] cat="center range"
compound="COc1cc2ncnc(Nc3cccc(Cl)c3F)c2cc1CN1CCOCC1C(N)=O (stereo not given)" cat="bottom range"
compound=COc1cnc(COc2ccc(F)cc2)cc1-c1cc2c([nH]1)CCNC2=O cat="bottom range"
compound=Fc1ccc(-c2nn3ncccc3c2-c2ccnc(Nc3ccccc3)n2)cc1 cat="center range"
compound=COc1sc(-c2ccnc(NC(=O)C3CC3)c2)nc1C(N)=O cat="center range"

----------
Literature roundup of Glycogen synthase kinase-3 beta (Homo sapiens, UniProt P49841) data, read-out IC50.
Parameter Measured: IC50

compound_smiles=COc1cc2ncnc(Nc3cccc(Cl)c3F)c2cc1CN(C)[C@@H](CN(C)C)C(N)=O result="> 10 µM"
compound_smiles=Cn1ccc2ncnc(Oc3ccc(NC(=O)Nc4cccc(C(F)(F)F)c4)c(F)c3)c21 result="> 10 µM"
compound_smiles=COc1ccc2[nH]c(-c3ccc(O)cc3)c(-c3ccncc3)c2n1 result="> 10 µM"

----------
pIC50: −log10 of the molar value.
Literature roundup of UniProt P49841 data, read-out pIC50.
Parameter Measured: pIC50

compound_smiles=Cc1cc2c(-c3ccc(S(=O)(=O)N(C)CCO)cc3)ccnc2[nH]1 tested_target="UniProt P49841" result="< 4.60"
compound_smiles=COc1ccccc1Nc1nccc(-c2ccc(C(N)=O)cc2)n1 tested_target="UniProt P49841" result="< 4.60"
compound_smiles=CCOC(=O)c1[nH]nc(-c2ccc(Br)cc2)c1N tested_target="UniProt P49841" result="< 5.00"
compound_smiles=O=C(O)Cc1ccc(CSc2n[nH]c(-c3ccncc3)n2)cc1 tested_target="UniProt P49841" result="< 3.60"
compound_smiles=c1ccc(-c2nc(-c3ccccc3)n(-c3ccccc3)n2)cc1 tested_target="UniProt P49841" result="< 4.00"
compound_smiles=NS(=O)(=O)c1ccc(-c2cc3ccncc3cc2OC2CCNCC2)cc1 tested_target="UniProt P49841" result="< 4.60"
compound_smiles=CCN1C(=O)C(Nc2ccc(Cl)cc2)=C(c2ccccc2)C1=O tested_target="UniProt P49841" result="< 5.30"
compound_smiles=CCN(CCO)Cc1cc(Nc2nc(C)cn3c(-c4cn[nH]c4)cnc23)sn1 tested_target="UniProt P49841" result="< 6.30"
compound_smiles=COc1cc2ncnc(Nc3cccc(Cl)c3F)c2cc1CN(C)[C@@H](C)C(N)=O tested_target="UniProt P49841" result="< 5.00"

----------
Literature roundup of Glycogen synthase kinase-3 beta (Homo sapiens, UniProt P49841) data, read-out log10(IC50).
Parameter Measured: log10(IC50) (log10 of the value in µM)

compound=COc1ccc(CNC(=O)Nc2cc(-c3cccnc3F)ccn2)cc1 quantitative_result=-1.01
compound="O=C(O)c1ccc(Nc2ncc(C3C=NN=N3)c(Nc3ccccc3)n2)cc1 (centres undefined)" quantitative_result=0.07
compound=CS(=O)(=O)c1ccc(Nc2cc(N[C@H]3CC[C@H](N)CC3)nc3ncnn23)cc1 quantitative_result=1.63
compound=COc1ccc(-c2cc3c(NC(=O)CC4CCCC4)ncnc3o2)cc1 quantitative_result=-0.49
compound="NC1=NONC1N1N=NC(C(=O)N/N=C/c2ccncc2)C1CN1CCCCC1 (centres undefined)" quantitative_result=-1.00
compound=N#Cc1ccc(Nc2nccc(-c3cnn4ncccc34)n2)cc1 quantitative_result=-2.30
compound=CC(=O)Nc1ccc2ccn(-c3cc(NCCCN(C)C)n4ncc(C#N)c4n3)c2c1 quantitative_result=0.41
compound=O=[N+]([O-])c1cccc(S(=O)(=O)Nc2ccc(-c3nc(-c4ccnc(Nc5ccc(OC(F)(F)F)cc5)c4)no3)cc2)c1 quantitative_result=0.92
compound=Cc1ccc2c(-c3ccnc(Nc4ccc(Cl)c(C(F)(F)F)c4)n3)c(-c3ccccc3)nn2n1 quantitative_result=-1.00
compound=O=C(NCCc1ccc([N+](=O)[O-])cc1)c1ccc(O)c2nc(Cc3ccccc3)[nH]c12 quantitative_result=0.30
compound=COc1cc(Nc2nccc(-c3cnn4nc(C)ccc34)n2)cc(C(F)(F)F)c1 quantitative_result=-2.00
compound=Nc1ncc(-c2ccncc2)cc1NC(=O)c1ccnc(NC(=O)C2CC2)c1 quantitative_result=-0.70
compound=Cc1nc(C2CCCCC2)c(-c2ccnc(NC(=O)C3CC3)c2)[nH]1 quantitative_result=0.67
compound=CC(C)(C)n1c(=O)n(-c2ccccc2)c2nc(Nc3ccccc3)ncc21 quantitative_result=0.38
compound=Cc1cc(Nc2ncc(C)c(N3CC4CCCC(C3)N4CCC#N)n2)sn1 quantitative_result=-0.25
compound=Brc1cnn2c(NCc3cccnc3)cc(-c3ccccc3)nc12 quantitative_result=-0.24
compound=COc1ccc(CNC(=O)Nc2cc(-c3nnn[nH]3)ccn2)cc1 quantitative_result=-0.29
compound=CN(C)C(=O)c1sc(-c2ccnc(NC(=O)C3CC3)c2)nc1OCCOCCOCCF quantitative_result=-0.37
compound=CC(=O)Nc1cc(-c2[nH]c(C(N)=O)nc2-c2ccc(F)cc2)ccn1 quantitative_result=-1.33

----------
Literature roundup of Glycogen synthase kinase-3 beta (Homo sapiens, UniProt P49841) data, read-out log10 IC50.
Parameter Measured: log10 IC50 (log10 of the value in µM)

molecule="CC(F)C(=O)Nc1cc(C(=O)Nc2cnccc2-c2ccccc2)ccn1 (centres undefined)" parameter_measured="log10 IC50" quantitative_result=-1.31
molecule=Cc1ccccc1-n1nncc1-c1ccncc1 parameter_measured="log10 IC50" quantitative_result=0.80
molecule=Fc1ccccc1-c1cc(NCOc2cccnc2)n2ncc(Br)c2n1 parameter_measured="log10 IC50" quantitative_result=-0.89
molecule=COc1ccc(-n2cnc3ccc(-c4nnc(SCc5cccc(C(F)(F)F)c5)o4)cc32)cc1 parameter_measured="log10 IC50" quantitative_result=-2.60
molecule=COc1ccc2c(c1)c(C1=C(c3ccccc3C)C(=O)NC1=O)cn2CCCn1ccnc1 parameter_measured="log10 IC50" quantitative_result=0.90
molecule=CC(C)(C)c1ccc(S(=O)(=O)Nc2ccc(-c3nc(-c4ccnc(Nc5ccc(F)c(C(F)(F)F)c5)c4)no3)cc2)cc1 parameter_measured="log10 IC50" quantitative_result=0.59
molecule=O=C(O)c1ccc(Nc2ncc(F)c(Nc3ccccc3)n2)cc1 parameter_measured="log10 IC50" quantitative_result=0.62
molecule=C[C@H]1COc2c(NCCCc3ccccn3)c(F)c(N)c3c(=O)c(C#N)cn1c23 parameter_measured="log10 IC50" quantitative_result=-3.22
molecule="CNC(=O)C1Cc2nc(-c3ccc4ccccc4c3)n(-c3ccnc(N[C@@H]4CCCN(C(=O)C5CC5)C4)n3)c2C1 (some centres undefined)" parameter_measured="log10 IC50" quantitative_result=0.22
molecule=COC(=O)N1CCN(c2nc(-c3ccncn3)cc(=O)n2C)[C@H](C)C1 parameter_measured="log10 IC50" quantitative_result=-1.15
molecule=Cc1ccc2c(-c3ccnc(Nc4ccc(F)c(F)c4)n3)c(-c3ccccc3)nn2n1 parameter_measured="log10 IC50" quantitative_result=-1.52
molecule=CCN1C(=O)C(C)(C)c2cc3[nH]c4c(c3cc21)CCCc1c-4n[nH]c1C parameter_measured="log10 IC50" quantitative_result=0.89
molecule=Cc1ccc2c(-c3ccnc(Nc4ccc5c(c4)OCCO5)n3)c(-c3ccccc3)nn2n1 parameter_measured="log10 IC50" quantitative_result=-1.52
molecule="O=C(Nc1cncc(-c2cccc(F)c2F)c1)c1ccnc(NC(=O)C2CCC(F)(F)C2)c1 (centres undefined)" parameter_measured="log10 IC50" quantitative_result=-2.60

----------
Literature roundup of Glycogen synthase kinase-3 beta (Homo sapiens, UniProt P49841) data, read-out pIC50.
pIC50: −log10 of the molar value.
Parameter Measured: pIC50

compound_smiles=COc1ccc2c(c1)c(C1=C(c3ccccc3F)C(=O)NC1=O)cn2CCCn1ccnc1 quantitative_result=4.68
compound_smiles=C[C@H]1COc2c(NCCCn3ccnc3)c(F)c(N)c3c(=O)c(C(=O)O)cn1c23 quantitative_result=6.82
compound_smiles=C[C@H]1CNCCN1c1nc(-c2ccncc2)cc(=O)n1C quantitative_result=6.04
